This collection of values is drawn from PubChem BioAssay (NCI).

Assay: NCI Yeast Anticancer Drug Screen. Data for the wt2 strain (AID 169);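 note: 0% = growth of vehicle-treated yeast cultures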
Details: S. cerevisiae wt2 strain growth inhibition; at 100.0 µM
About 79,000 compounds went through this panel and 15% of them were active in at least one assay; those are over-represented in the sample as a whole. Calls of active or inactive are those of the source. Cut-off read from the data, not from the text of the source: active = growth inhibition above about 70%; inactive = the rest.
Labels: active, inactive

{"Compound": "Nc1c([N+](=O)[O-])cc2c3c(cccc13)CC2", "Discrete Label": "inactive"}
{"Compound": "CC[C@@]1(OC(=O)CN(C)C)C(=O)OCc2c1cc1n(c2=O)Cc2cc3ccccc3nc2-1", "Discrete Label": "active"}
{"Compound": "CCN(CC)CCSc1c2ccccc2nc2cc(NCC(=O)Nc3ccccc3-c3ccccc3NC(=O)CNc3ccc4c(SCCN(CC)CC)c5ccccc5nc4c3)ccc12", "Discrete Label": "active"}
{"Compound": "CCCCCC/C(C)=N/Nc1ccc([N+](=O)[O-])cc1[N+](=O)[O-]", "Discrete Label": "inactive"}
{"Compound": "CN(C)N1C(=O)SCC(c2ccccc2)(c2ccccc2)C1=O", "Discrete Label": "inactive"}
{"Compound": "C[Si](C)(C)Cc1ccccc1C(=O)O", "Discrete Label": "active"}
{"Compound": "[Cl][Pt+2][Cl].[NH-]CC1(C[NH-])CCCCC1", "Discrete Label": "active"}
{"Compound": "COc1ccc2c(Cc3c4ccccc4cc4ccccc34)cncc2c1O", "Discrete Label": "active"}
{"Compound": "c1ccc(N/N=C2\\CC(c3ccccc3)Oc3ccccc32)cc1 (stereo not given)", "Discrete Label": "inactive"}
{"Compound": "O=S(=O)(O)c1ccc2c(N=Nc3c(O)ccc4ccccc34)cccc2c1", "Discrete Label": "active"}

---

Below, each of the compounds is paired with its reported growth inhibition value.
Assay: NCI Yeast Anticancer Drug Screen. Data for the sgs1 mgt1 strain (AID 161);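 note: 0% = growth of cultures given vehicle only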
Settings: S. cerevisiae sgs1 mgt1 strain, at 50.0 µM, hits give high values
Compounds without any hit were thinned out: in the full panel of roughly 79,000, 15% have a hit.

{"Compound": "[N-]=[N+]=NC1CC(n2ccc(=O)[nH]c2=O)OC1COC(c1ccccc1)(c1ccccc1)c1ccccc1 (centres undefined)", "Unit Annotation": "%", "growth inhibition": 50.5}
{"Compound": "NCC(O)CSCc1ccc(Cl)cc1 (centres undefined)", "Unit Annotation": "%", "growth inhibition": 31}
{"Compound": "CCOC(=O)c1sc2[n+](c1C)C(=O)/C(=C/c1cc(OC)c(OC)c(OC)c1)S2", "Unit Annotation": "%", "growth inhibition": 80.5}
{"Compound": "Cc1c(N=Nc2ccc(Cl)cc2)c(C)n(C2OC(CO)C(O)C(O)C2O)c(=S)c1C#N (centres undefined)", "Unit Annotation": "%", "growth inhibition": 87}
{"Compound": "[O-]c1c2cc(-[n+]3c(-c4ccccc4)cc(-c4ccccc4)cc3-c3ccccc3)cc1COCCOCCOCCOCCOC2", "Unit Annotation": "%", "growth inhibition": 31.6}
{"Compound": "CCOC(=O)C(NC(=O)c1ccccc1)[CH](c1ccccc1)[Sn]([c]1ccccc1)([c]1ccccc1)[c]1ccccc1 (centres undefined)", "Unit Annotation": "%", "growth inhibition": 97.3}
{"Compound": "CCCCCCC(CCl)c1sc(-c2csc(CCNC(=O)OC(C)(C)C)n2)nc1C(=O)OC (centres undefined)", "Unit Annotation": "%", "growth inhibition": -13.5}
{"Compound": "Nc1nc(Nc2ccccc2)nc(Nc2ccccc2)n1", "Unit Annotation": "%", "growth inhibition": 94}
{"Compound": "Cc1ccc2nc(N/N=C/c3ccc(C)s3)cc(C)c2c1", "Unit Annotation": "%", "growth inhibition": 91.8}

---

Assay: NCI Yeast Anticancer Drug Screen. Data for the mgt1 strain (AID 153)
Details: S. cerevisiae mgt1 mutant growth inhibition; at 3.7 µM; hits give high values
This is part of a sample that, as a whole, favours compounds with a hit. Of some 79,000 tested, about 15% had one in any assay.
Use YES when the recorded growth inhibition is no lower than 10%; use NO when it is lower.

{"Compound": "CC(=O)CC[N+](C)(C)C", "Discrete Label": "NO"}
{"Compound": "CN(C)c1ccc(/C=C/c2ccnc3ccc4ccccc4c23)cc1", "Discrete Label": "NO"}
{"Compound": "[Cl][Pt+2][Cl].[NH-]CC1(C[NH-])CCCCC1", "Discrete Label": "YES"}
{"Compound": "COc1ccc(/C=C2\\CCc3ccccc3C2=O)cc1OC", "Discrete Label": "NO"}
{"Compound": "O=C(Cc1ccccc1F)NC1=C(Cl)C(=O)c2ccccc2C1=O", "Discrete Label": "YES"}
{"Compound": "CN(C)CCC(=O)c1c[nH]c2ccccc12", "Discrete Label": "NO"}
{"Compound": "C#CC1=CC(=O)C(OC)=CC1=O", "Discrete Label": "YES"}
{"Compound": "CCN(CC)CCSc1c2ccccc2nc2cc(NCC(=O)Nc3ccccc3-c3ccccc3NC(=O)CNc3ccc4c(SCCN(CC)CC)c5ccccc5nc4c3)ccc12", "Discrete Label": "YES"}
{"Compound": "O=S(=O)(Oc1c(Cl)cc(Cl)cc1Cl)c1ccccc1", "Discrete Label": "NO"}
{"Compound": "O=C1C(Br)=CC(Br)(Br)C=C1Br", "Discrete Label": "NO"}
{"Compound": "CCCCOc1ccc(Nc2c3ccccc3nc3ccccc23)cc1", "Discrete Label": "NO"}
{"Compound": "COc1ccc(C(=O)OCCc2ccccc2)cc1", "Discrete Label": "NO"}
{"Compound": "Cc1cccc[c]1[Sn]([Cl])([S]/C(C#N)=N/N=C/c1ccc(N(C)C)cc1)[c]1ccccc1C", "Discrete Label": "NO"}
{"Compound": "O=C1C(C(O)(C(F)(F)F)C(F)(F)F)CCC1C(O)(C(F)(F)F)C(F)(F)F (stereo not drawn)", "Discrete Label": "NO"}
{"Compound": "O=C(c1c(F)c(F)c(F)c(F)c1F)c1c(F)c(F)c(F)c(F)c1F", "Discrete Label": "YES"}
{"Compound": "CCCCCC(=O)C(C)(c1nc2n(c1O)/C(=N/C(=O)Nc1ccc(Cl)cc1)N=N2)c1nc2n(c1O)/C(=N/C(=O)Nc1ccc(Cl)cc1)N=N2", "Discrete Label": "NO"}
{"Compound": "Cc1ccccc1C1=C(CC(=O)O)c2ccccc2CC1C (stereo not drawn)", "Discrete Label": "YES"}
{"Compound": "Nc1c([N+](=O)[O-])cc2c3c(cccc13)CC2", "Discrete Label": "YES"}
{"Compound": "CCOc1ccc2ccc3cccnc3c2n1", "Discrete Label": "NO"}
{"Compound": "O=C(/C(=C/c1ccccc1)CBr)c1ccccc1", "Discrete Label": "NO"}
{"Compound": "O=C1C=CC(=Nc2ccc3c(c2)Cc2cc(Cl)ccc2-3)O1", "Discrete Label": "YES"}
{"Compound": "CCCCCCC(CCl)c1sc(-c2csc(CCNC(=O)OC(C)(C)C)n2)nc1C(=O)OC (stereo not drawn)", "Discrete Label": "NO"}

---

Test: NCI Yeast Anticancer Drug Screen. Data for the bub3 strain (AID 167)
Details: S. cerevisiae bub3 mutant strain, at 50.0 µM (retest, dose inferred, filed as 5.0), hits give high values
This is part of a sample that, as a whole, favours compounds with a hit. Of some 79,000 tested, about 15% had one in any assay.
Measured Metric: growth inhibition (%)

{"Molecule": "O=C(Nc1ccn(C2CC(O)C(COC(c3ccccc3)(c3ccccc3)c3ccccc3)O2)c(=O)n1)c1ccccc1 (stereo not given)", "Unit Annotation": "%", "Number": 95}
{"Molecule": "Cc1ccc(SSc2ccc(C)cc2[N+](=O)[O-])c([N+](=O)[O-])c1", "Unit Annotation": "%", "Number": 94}
{"Molecule": "O=C(O)NCC1CCCCC1 (tested in a mixture with another compound)", "Unit Annotation": "%", "Number": 10}
{"Molecule": "COc1ccc(/C(=N/O)c2ccccc2C2=Nc3ccccc3C(NCc3ccccc3)O2)cc1C (stereo not given)", "Unit Annotation": "%", "Number": 93}
{"Molecule": "Cc1ccc(Cl)c2c(=O)c3ccccc3[nH]c12", "Unit Annotation": "%", "Number": 14}

---

Test: NCI Yeast Anticancer Drug Screen. Data for the sgs1 strain (AID 173);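 note: 0% = growth of vehicle-only control cultures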
Details: S. cerevisiae sgs1 mutant, at 100.0 µM
This is part of a sample that, as a whole, favours compounds with a hit. Of some 79,000 tested, about 15% had one in any assay. The source made the active and inactive calls. No stated cut-off is given here; in the data, active means growth inhibition above about 70%; inactive means the rest.
Outcome codes: TRUE = active, FALSE = inactive

{"Compound": "Cc1cnc(/C=N\\NC(N)=S)c2cccc(N)c12", "Discrete Label": "TRUE"}
{"Compound": "CC(=O)c1ccc(NCN2C(=O)c3ccccc3C2=O)cc1", "Discrete Label": "TRUE"}
{"Compound": "O=C1c2ccccc2-c2ccc(NC(=O)C3CCCCC3C(=O)O)cc21 (stereo not given)", "Discrete Label": "TRUE"}
{"Compound": "Cc1ccc(Nc2n[nH]c(=S)s2)cc1C", "Discrete Label": "TRUE"}
{"Compound": "O=c1oc(C(C(F)(F)F)C(F)(F)F)nc2ccccc12", "Discrete Label": "FALSE"}
{"Compound": "CCOC(=O)/C(O)=C(/C=N/C(=S)Nc1c(CC)cccc1CC)C(=O)OCC", "Discrete Label": "FALSE"}
{"Compound": "Cc1ccc2oc(-c3cccc(N)c3)nc2c1", "Discrete Label": "FALSE"}
{"Compound": "c1cc(Nc2ccc3c(c2)OCO3)c2cc(C3CCCCC3)ccc2n1", "Discrete Label": "TRUE"}
{"Compound": "CN(C)/N=N/c1nc[nH]c1C(N)=O", "Discrete Label": "TRUE"}
{"Compound": "S=c1[nH]nc(Cc2ccccc2)c(=S)[nH]1", "Discrete Label": "TRUE"}
{"Compound": "CN(C)CCn1c2ccccc2c2nc3cc4ccccc4cc3nc21", "Discrete Label": "TRUE"}
{"Compound": "O=C(O)/C=C\\C(=O)NNc1ccc(Br)cc1", "Discrete Label": "TRUE"}
{"Compound": "Cc1cccc(N2CCN(C(=O)/C(=C/c3ccccc3)NC(=O)c3ccccc3)CC2)c1", "Discrete Label": "FALSE"}
{"Compound": "CCc1nc2ccc(N=Nc3c(O)ccc4ccccc34)cc2[nH]1", "Discrete Label": "TRUE"}
{"Compound": "O=C(CCC(=O)c1ccc(O)cc1)Oc1ccc(O)cc1", "Discrete Label": "FALSE"}
{"Compound": "CC(C)(C(=O)NN)c1ccccc1", "Discrete Label": "TRUE"}
{"Compound": "C[Si](C)(C)Cc1ccccc1C(=O)O", "Discrete Label": "TRUE"}
{"Compound": "[O-]c1c2cc(-[n+]3c(-c4ccccc4)cc(-c4ccccc4)cc3-c3ccccc3)cc1COCCOCCOCCOCCOC2", "Discrete Label": "TRUE"}
{"Compound": "O=CC(=C(I)I)c1ccccc1", "Discrete Label": "TRUE"}
{"Compound": "N#C/C(=C1C=C/C(=N\\O)C(Cl)=C\\1)c1ccccc1", "Discrete Label": "FALSE"}
{"Compound": "N=C(N)c1ccc(N=Nc2c(O)ccc3c2[nH]c2ccccc23)cc1", "Discrete Label": "TRUE"}
{"Compound": "COc1cc(NCCCCCNC(C)C)c2ncccc2c1Cl", "Discrete Label": "FALSE"}
{"Compound": "COc1cc(C(C)(C)C)cc(OC)c1C(O)(c1c(OC)cc(C(C)(C)C)cc1OC)c1c(OC)cc(C(C)(C)C)cc1OC", "Discrete Label": "TRUE"}
{"Compound": "CCOc1ccccc1N1C(=O)CC(Sc2ccccc2N)C1=O (stereo not given)", "Discrete Label": "FALSE"}
{"Compound": "CSc1ccc2c(c1)C(N1CCN(C)CC1)Cc1ccccc1S2 (stereo not given)", "Discrete Label": "TRUE"}
{"Compound": "OC(c1ccc(Br)cc1)(c1cccs1)C1CC1 (stereo not given)", "Discrete Label": "TRUE"}
{"Compound": "CCC1SC(=S)N(c2ccc(Cl)cc2)C1=O (stereo not given)", "Discrete Label": "TRUE"}
{"Compound": "C=Cc1c(C)c(O)cc2c1-c1ccc(O)c(C)c1CC2", "Discrete Label": "TRUE"}
{"Compound": "c1cc2ccc3cc4ncccc4c4ccc(c1)c2c34", "Discrete Label": "TRUE"}
{"Compound": "CC[C@]1(O)C[C@H]2CN(CCc3c([nH]c4ccccc34)[C@@](C(=O)OC)(c3cc4c(cc3OC)N(C)[C@H]3[C@@](O)(C(=O)OC)[C@H](OC(C)=O)[C@]5(CC)C=CCN6CC[C@]43[C@@H]65)C2)C1", "Discrete Label": "FALSE"}
{"Compound": "O=C1C=CC(=O)N1c1ccc(Br)cc1Cl", "Discrete Label": "TRUE"}
{"Compound": "CNC(=O)OCc1c(COC(=O)NC)c(C)n(-c2ccc(Cl)c(Cl)c2)c1C", "Discrete Label": "TRUE"}
{"Compound": "COc1ccc2c(Cc3c4ccccc4cc4ccccc34)cncc2c1O", "Discrete Label": "TRUE"}
{"Compound": "BrC/C=C/C[P+](c1ccccc1)(c1ccccc1)c1ccccc1", "Discrete Label": "TRUE"}
{"Compound": "COc1ccc(/C=C2\\S/C(=N/Nc3nc(-c4ccccc4)cs3)NC2=O)cc1OC", "Discrete Label": "TRUE"}
{"Compound": "CC[N+]1(C)CCC(O)(/C=C/c2ccc(Cl)c(Cl)c2)C(C(=O)/C=C/c2ccc(Cl)c(Cl)c2)C1 (stereo not given)", "Discrete Label": "TRUE"}
{"Compound": "CCN(CC)CCSc1c2ccccc2nc2cc(NCC(=O)Nc3ccccc3-c3ccccc3NC(=O)CNc3ccc4c(SCCN(CC)CC)c5ccccc5nc4c3)ccc12", "Discrete Label": "TRUE"}
{"Compound": "CN(Cc1cccc2ccccc12)Cc1cccc2ccccc12", "Discrete Label": "FALSE"}
{"Compound": "COc1ccc(C(=O)OCCc2ccccc2)cc1", "Discrete Label": "FALSE"}
{"Compound": "C#CC1=CC(=O)C(OC)=CC1=O", "Discrete Label": "TRUE"}
{"Compound": "Cc1nc2ccccc2c(=O)n1NC(=O)c1ccc(CS)cc1", "Discrete Label": "TRUE"}
{"Compound": "CCOC(=O)C1=C(C)NC(C)=C(C(=O)OCC)C1c1cccc([N+](=O)[O-])c1", "Discrete Label": "TRUE"}
{"Compound": "CCCCCCCCCC/C=C\\CC(=O)O", "Discrete Label": "TRUE"}
{"Compound": "COc1ccc(C(=O)NCCN(C)C)c2nc3ccccc3cc12", "Discrete Label": "FALSE"}
{"Compound": "Cc1cc(NC(=S)SCc2ccc(Cl)cc2)ccc1Cl", "Discrete Label": "TRUE"}
